- SYSTEM: N-terminal kinase-like protein (Mus musculus) (UniProt Q9EQC5)
- Sequence (Q9EQC5 whole entry): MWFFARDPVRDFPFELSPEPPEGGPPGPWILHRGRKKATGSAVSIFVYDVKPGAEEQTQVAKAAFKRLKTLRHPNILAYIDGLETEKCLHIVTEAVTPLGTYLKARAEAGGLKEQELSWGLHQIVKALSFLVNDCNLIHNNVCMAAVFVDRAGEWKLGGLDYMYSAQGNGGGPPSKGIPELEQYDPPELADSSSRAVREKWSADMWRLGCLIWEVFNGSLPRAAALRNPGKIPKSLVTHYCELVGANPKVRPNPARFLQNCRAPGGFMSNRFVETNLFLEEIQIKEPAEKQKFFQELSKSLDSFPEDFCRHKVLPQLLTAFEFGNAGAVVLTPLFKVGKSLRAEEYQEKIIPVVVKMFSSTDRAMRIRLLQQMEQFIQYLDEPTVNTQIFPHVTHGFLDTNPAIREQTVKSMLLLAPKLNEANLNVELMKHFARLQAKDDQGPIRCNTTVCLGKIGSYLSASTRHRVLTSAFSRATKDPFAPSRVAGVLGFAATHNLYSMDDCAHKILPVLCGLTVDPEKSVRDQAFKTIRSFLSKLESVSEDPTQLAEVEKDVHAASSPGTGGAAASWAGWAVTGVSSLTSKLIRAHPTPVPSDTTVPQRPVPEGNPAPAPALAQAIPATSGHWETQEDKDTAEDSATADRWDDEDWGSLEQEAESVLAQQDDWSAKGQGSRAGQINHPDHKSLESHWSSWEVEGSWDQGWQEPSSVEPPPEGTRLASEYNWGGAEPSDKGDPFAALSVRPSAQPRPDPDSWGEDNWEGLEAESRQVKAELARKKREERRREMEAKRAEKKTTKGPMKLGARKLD
- MEASUREMENT PROTOCOL: Inhibition of Scyl1 in mouse BetaTC6 cells assessed as increase in insulin release at 2 to 10 uM incubated for 2 hrs in presence of high glucose media by ELISA
- Type: cell-based
- CONDITIONS USED: Beta-TC6
ATTRIBUTE MEASURED: inhibition

// below: answered molecules
- CHEMICAL STRUCTURE: "COc1cc(-c2ccc3ncc(-c4cccnc4)n3n2)cc(OC)c1OC"
  SYSTEM: "N-terminal kinase-like protein (Mus musculus) (UniProt Q9EQC5)"
  MEASUREMENT: "Dose-dependent effect"
- CHEMICAL STRUCTURE: "CC(=O)Nc1cccc(-c2ccc3ncc(-c4cccc(NC(C)=O)c4)n3n2)c1"
  SYSTEM: "N-terminal kinase-like protein (Mus musculus) (UniProt Q9EQC5)"
  MEASUREMENT: "Dose-dependent effect"
- CHEMICAL STRUCTURE: "COc1ccc(-c2ccc3ncc(-c4ccncc4)n3n2)cc1OC"
  SYSTEM: "N-terminal kinase-like protein (Mus musculus) (UniProt Q9EQC5)"
  MEASUREMENT: "Dose-dependent effect"
- CHEMICAL STRUCTURE: "CN(C)CCNC(=O)c1cccc(-c2cnc3ccc(-c4cccc(NS(C)(=O)=O)c4)nn23)c1"
  SYSTEM: "N-terminal kinase-like protein (Mus musculus) (UniProt Q9EQC5)"
  MEASUREMENT: "Dose-dependent effect"

Request: Which value of inhibition has been reported for COc1cc(-c2cnc3ccc(-c4cc(OC)c(OC)c(OC)c4)nn23)ccc1O in the records?
Result: Dose-dependent effect
